tested on: HCT-116; test: NCI tumour cell line growth inhibition, 48 h
Calls of active or inactive are those of the source. No stated cut-off is given here; in the data, active = GI50 up to about 1.1 µM and inactive = higher.
Parameter call: string, one of active, inactive

Some entries whose results are on file:
- CN(C)c1ccc(C(C=C2c3ccccc3Sc3ccccc32)=C(C#N)C#N)cc1: inactive
- CC(C)C(=O)NS(=O)(=O)c1ccccc1: inactive
- c1ccc2c(c1)CCc1c(-c3n[nH]c4c3CCc3ccccc3-4)n[nH]c1-2: inactive
- Cc1cc(Cl)cc2c1NC(=O)/C2=N\Nc1ccccc1[N+](=O)[O-]: inactive
- COc1cccc(C(=O)O)c1Cc1cccc2ccccc12: inactive

For this molecule, state the assay outcome: Cc1cc2c(SCc3ccccc3Cl)nc(N)nc2nc1C inactive

Same question for Cc1ccc(S(=O)(=O)N/N=C(\c2nc3ccc(Cl)cc3nc2O)C(O)c2cccc([N+](=O)[O-])c2)cc1 (configuration not stated) please. inactive

Same question for Cc1nc(-n2nc(-c3ccccc3)cc2-c2ccccc2)sc1C(/C=C/c1ccc([N+](=O)[O-])cc1)=N/NC(=O)c1ccncc1 please. inactive

Same question for CCOC(=O)/C(=C\c1ccccc1)C(=O)O please. inactive

Same question for Nc1cccc2c1C(=O)c1cccc(N)c1C2=O please. inactive

Same question for CCOC(=O)C(=CNC(=S)N/N=C1\C(=O)Nc2ccccc21)C(=O)OCC please. inactive

Same question for N#CC1(C#N)C2(c3ccccc3)OC(c3ccccc3)(c3cc4ccccc4cc32)C1(C#N)C#N please. inactive
